target: THERMINATOR™ DNA polymerase (Thermococcus sp., UniProt Q56366, A485L/D141A/E143A); construct: purchased New England Biolabs; test: termination assay, weighted sum analysis on homopolymer repeat template; type: biochemical, Thermococcus species 9° N-7; conditions: 5x IC50; 1.0 = complete termination after a single incorporation
Sequence (Q56366 whole entry D141A/E143A/A485L): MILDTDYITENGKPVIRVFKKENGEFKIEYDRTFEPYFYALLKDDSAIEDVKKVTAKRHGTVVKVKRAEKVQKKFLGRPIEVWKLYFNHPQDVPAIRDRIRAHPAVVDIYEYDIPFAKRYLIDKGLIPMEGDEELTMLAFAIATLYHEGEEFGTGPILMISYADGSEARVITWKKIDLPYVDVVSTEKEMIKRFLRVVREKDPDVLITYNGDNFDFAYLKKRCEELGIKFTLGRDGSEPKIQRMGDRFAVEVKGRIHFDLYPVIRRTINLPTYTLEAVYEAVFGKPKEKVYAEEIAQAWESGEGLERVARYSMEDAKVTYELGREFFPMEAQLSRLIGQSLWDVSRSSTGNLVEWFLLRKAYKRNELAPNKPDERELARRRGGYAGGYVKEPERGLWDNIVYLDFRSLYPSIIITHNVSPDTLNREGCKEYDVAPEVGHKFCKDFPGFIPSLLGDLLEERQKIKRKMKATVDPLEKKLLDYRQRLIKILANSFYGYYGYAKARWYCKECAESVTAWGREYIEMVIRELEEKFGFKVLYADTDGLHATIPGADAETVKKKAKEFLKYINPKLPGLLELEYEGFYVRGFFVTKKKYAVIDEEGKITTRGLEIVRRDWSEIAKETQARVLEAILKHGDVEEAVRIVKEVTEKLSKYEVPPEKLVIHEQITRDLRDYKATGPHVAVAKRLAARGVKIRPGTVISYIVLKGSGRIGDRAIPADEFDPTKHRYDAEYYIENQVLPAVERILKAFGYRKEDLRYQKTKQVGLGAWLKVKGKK
Readout type: Average Weighted Sum ± SD
Give only the figure.

Compound: Cc1ccccc1COCc1cn([C@H]2C[C@H](O)[C@@H](COP(=O)(O)OP(=O)(O)OP(=O)(O)O)O2)c(=O)[nH]c1=O [5p147]
Average Weighted Sum ± SD: 1.5

Compound: CC(C)(C)c1ccccc1COCc1cn([C@H]2C[C@H](O)[C@@H](COP(=O)(O)OP(=O)(O)OP(=O)(O)O)O2)c(=O)[nH]c1=O [6p024]
Average Weighted Sum ± SD: 1.2

Compound: CC(OCc1cn([C@H]2C[C@H](O)[C@@H](COP(=O)(O)OP(=O)(O)OP(=O)(O)O)O2)c(=O)[nH]c1=O)c1ccccc1[N+](=O)[O-] (mixture of isomers) [2p043]
Average Weighted Sum ± SD: 1.1

**Q:** Provide value of Average Weighted Sum ± SD for this record tested with THERMINATOR™ DNA polymerase (Thermococcus sp., UniProt Q56366, A485L/D141A/E143A): CC(C)c1ccccc1COCc1cn([C@H]2C[C@H](O)[C@@H](COP(=O)(O)OP(=O)(O)OP(=O)(O)O)O2)c(=O)[nH]c1=O [5p149]
**A:** 1.3

**Q:** Provide value of Average Weighted Sum ± SD for this record tested with THERMINATOR™ DNA polymerase (Thermococcus sp., UniProt Q56366, A485L/D141A/E143A): Cc1cccc(C)c1COCc1cn([C@H]2C[C@H](O)[C@@H](COP(=O)(O)OP(=O)(O)OP(=O)(O)O)O2)c(=O)[nH]c1=O [6p015]
**A:** 1.5

* * *

Target: THERMINATOR™ DNA polymerase (Thermococcus sp., UniProt Q56366, A485L/D141A/E143A)
Construct: purchased New England Biolabs
Assay: termination assay, weighted sum analysis on homopolymer repeat template
Assay type: biochemical, Thermococcus species 9° N-7
Conditions: 5x IC50; 1.0 = complete termination after a single incorporation
Method: A weighted sum of 1.0 represents complete termination after a single incorporation, while a value greater than 1.0 indicates incorporation beyond the +1 position (e.g. nucleotide read through). […] The assay is performed as described above for the polymerase end-point assay, except that the template used is a homopolymer repeat, thereby allowing for multiple incorporations of a given nucleotide compound.
Readout type: Average Weighted Sum ± SD
Give only the figure.

Compound: CC(C)C(OCc1cn([C@H]2C[C@H](O)[C@@H](COP(=O)(O)OP(=O)(O)OP(=O)(O)O)O2)c(=O)[nH]c1=O)c1ccccc1 (mixture of isomers)
Average Weighted Sum ± SD: 0.96
--
Compound: O=c1[nH]c(=O)n([C@H]2C[C@H](O)[C@@H](COP(=O)(O)OP(=O)(O)OP(=O)(O)O)O2)cc1COCc1ccccc1-c1ccccc1
Average Weighted Sum ± SD: 1.1
--
Compound: CC(C)C(OCc1cn([C@H]2C[C@H](O)[C@@H](COP(=O)(O)OP(=O)(O)OP(=O)(O)O)O2)c(=O)[nH]c1=O)c1ccccc1[N+](=O)[O-] (mixture of isomers)
Average Weighted Sum ± SD: 0.99
--
Compound: O=c1[nH]c(=O)n([C@H]2C[C@H](O)[C@@H](COP(=O)(O)OP(=O)(O)OP(=O)(O)O)O2)cc1COCc1ccccc1
Average Weighted Sum ± SD: 1.3

Now for another entry.
**Q:** Quick one: Average Weighted Sum ± SD for Cc1cn([C@H]2C[C@H](O)[C@@H](COP(=O)(O)OP(=O)(O)OP(=O)(O)O)O2)c(=O)[nH]c1=O [dTTP, reference compound] ?
**A:** 3.0

* * *

molecular target: THERMINATOR™ DNA polymerase (Thermococcus sp., UniProt Q56366, A485L/D141A/E143A); construct: purchased New England Biolabs; assay: polymerase end point assay, mismatch discrimination (mismatched template bases); assay type: biochemical, Thermococcus species 9° N-7; details: template base "G"
Readout type: Mismatch/match ratio (10^2)

Molecule: Nc1nc2c(c(COCc3ccccc3[N+](=O)[O-])cn2[C@H]2C[C@H](O)[C@@H](COP(=O)(O)OP(=O)(O)OP(=O)(O)O)O2)c(=O)[nH]1 [5p107]
Tested system: THERMINATOR™ DNA polymerase (Thermococcus sp., UniProt Q56366, A485L/D141A/E143A)
Readout type: Mismatch/match ratio (10^2)
Result: 0.4 10^2

**Q:** Quick one: Mismatch/match ratio (10^2) for Nc1nc2c(ncn2[C@H]2C[C@H](O)[C@@H](COP(=O)(O)OP(=O)(O)OP(=O)(O)O)O2)c(=O)[nH]1 [dGTP, reference compound] ?
**A:** 0.2 10^2

**Q:** Quick one: Mismatch/match ratio (10^2) for CC(C)C(OCc1cn([C@H]2C[C@H](O)[C@@H](COP(=O)(O)OP(=O)(O)OP(=O)(O)O)O2)c2nc(N)[nH]c(=O)c12)c1ccccc1[N+](=O)[O-] (single isomer, unassigned) [5p143-ds1] ?
**A:** >21 10^2

**Q:** Quick one: Mismatch/match ratio (10^2) for CC(C)C(OCc1cn([C@H]2C[C@H](O)[C@@H](COP(=O)(O)OP(=O)(O)OP(=O)(O)O)O2)c2nc(N)[nH]c(=O)c12)c1ccccc1[N+](=O)[O-] (single isomer, unassigned) [5p143-ds2] ?
**A:** >7.7 10^2

* * *

biological target: THERMINATOR™ DNA polymerase (Thermococcus sp., UniProt Q56366, A485L/D141A/E143A); construct: purchased New England Biolabs; experiment: termination assay, weighted sum analysis on homopolymer repeat template; format: biochemical, Thermococcus species 9° N-7; details: 25x IC50; 1.0 = complete termination after a single incorporation
Reported Average Weighted Sum ± SD values follow for various compounds
Give only the figure.

In the examples that follow, each entry is paired with its recorded Average Weighted Sum ± SD.
Compound: Cc1ccccc1COCc1cn([C@H]2C[C@H](O)[C@@H](COP(=O)(O)OP(=O)(O)OP(=O)(O)O)O2)c(=O)[nH]c1=O [5p147]
Average Weighted Sum ± SD: 2.6

Compound: CC(C)c1ccccc1COCc1cn([C@H]2C[C@H](O)[C@@H](COP(=O)(O)OP(=O)(O)OP(=O)(O)O)O2)c(=O)[nH]c1=O [5p149]
Average Weighted Sum ± SD: 2.2

Compound: Cc1cccc(C)c1COCc1cn([C@H]2C[C@H](O)[C@@H](COP(=O)(O)OP(=O)(O)OP(=O)(O)O)O2)c(=O)[nH]c1=O [6p015]
Average Weighted Sum ± SD: 2.2

Compound: Cc1cn([C@H]2C[C@H](O)[C@@H](COP(=O)(O)OP(=O)(O)OP(=O)(O)O)O2)c(=O)[nH]c1=O [dTTP, reference compound]
Average Weighted Sum ± SD: 12.2

Compound: CC(OCc1cn([C@H]2C[C@H](O)[C@@H](COP(=O)(O)OP(=O)(O)OP(=O)(O)O)O2)c(=O)[nH]c1=O)c1ccccc1[N+](=O)[O-] (mixture of isomers) [2p043]
Average Weighted Sum ± SD: 1.7

**Q:** Quick one: Average Weighted Sum ± SD for CC(C)(C)c1ccccc1COCc1cn([C@H]2C[C@H](O)[C@@H](COP(=O)(O)OP(=O)(O)OP(=O)(O)O)O2)c(=O)[nH]c1=O [6p024] ?
**A:** 1.9

* * *

molecular target: THERMINATOR™ DNA polymerase (Thermococcus sp., UniProt Q56366, A485L/D141A/E143A); construct: purchased New England Biolabs; assay: biochemical; parameters: species or system Thermococcus species 9° N-7; conditions: adjusted IC50 used to set the concentrations of the termination assay; read-out: Adj IC50 Conc
Reported pIC50 values follow for various compounds
Formally, pIC50 is defined as -log10 of the concentration c, with c in mol/L.

Compound: CC(OCc1cn([C@H]2C[C@H](O)[C@@H](COP(=O)(O)OP(=O)(O)OP(=O)(O)O)O2)c(=O)[nH]c1=O)c1ccccc1[N+](=O)[O-] (mixture of isomers) [2p043]
Numeric result: 8.77

**Q:** Quick one: pIC50 for Cc1cn([C@H]2C[C@H](O)[C@@H](COP(=O)(O)OP(=O)(O)OP(=O)(O)O)O2)c(=O)[nH]c1=O [dTTP, reference compound] ?
**A:** 8.68

* * *

Target: THERMINATOR™ DNA polymerase (Thermococcus sp., UniProt Q56366, A485L/D141A/E143A)
Construct: purchased New England Biolabs
Assay: termination assay, weighted sum analysis on homopolymer repeat template
Format: biochemical, Thermococcus species 9° N-7
Conditions: 1x IC50; 1.0 = complete termination after a single incorporation
Protocol: A weighted sum of 1.0 represents complete termination after a single incorporation, while a value greater than 1.0 indicates incorporation beyond the +1 position (e.g. nucleotide read through). […] The assay is performed as described above for the polymerase end-point assay, except that the template used is a homopolymer repeat, thereby allowing for multiple incorporations of a given nucleotide compound.
Readout type: Average Weighted Sum ± SD
Give only the figure.

In the examples that follow, each entry is paired with its recorded Average Weighted Sum ± SD.
Compound: O=c1[nH]c(=O)n([C@H]2C[C@H](O)[C@@H](COP(=O)(O)OP(=O)(O)OP(=O)(O)O)O2)cc1COCc1ccccc1
Average Weighted Sum ± SD: 0.43

Compound: Cc1cn([C@H]2C[C@H](O)[C@@H](COP(=O)(O)OP(=O)(O)OP(=O)(O)O)O2)c(=O)[nH]c1=O [dTTP, reference compound]
Average Weighted Sum ± SD: 0.68

**Q:** Quick one: Average Weighted Sum ± SD for CC(C)C(OCc1cn([C@H]2C[C@H](O)[C@@H](COP(=O)(O)OP(=O)(O)OP(=O)(O)O)O2)c(=O)[nH]c1=O)c1ccccc1 (mixture of isomers) ?
**A:** 0.44

**Q:** Quick one: Average Weighted Sum ± SD for Cc1ccccc1COCc1cn([C@H]2C[C@H](O)[C@@H](COP(=O)(O)OP(=O)(O)OP(=O)(O)O)O2)c(=O)[nH]c1=O ?
**A:** 0.51

**Q:** Quick one: Average Weighted Sum ± SD for CC(C)(C)c1ccccc1COCc1cn([C@H]2C[C@H](O)[C@@H](COP(=O)(O)OP(=O)(O)OP(=O)(O)O)O2)c(=O)[nH]c1=O ?
**A:** 0.44

**Q:** Quick one: Average Weighted Sum ± SD for Cc1cccc(C)c1COCc1cn([C@H]2C[C@H](O)[C@@H](COP(=O)(O)OP(=O)(O)OP(=O)(O)O)O2)c(=O)[nH]c1=O ?
**A:** 0.56

**Q:** Quick one: Average Weighted Sum ± SD for CC(OCc1cn([C@H]2C[C@H](O)[C@@H](COP(=O)(O)OP(=O)(O)OP(=O)(O)O)O2)c(=O)[nH]c1=O)c1ccccc1[N+](=O)[O-] (mixture of isomers) ?
**A:** 0.53
